# assayComment: self-splicing fitness, log relative to wild type (ln ratio); higher = more splicing; Tetrahymena group I intron in knt gene, E. coli kanamycin selection, DiMSum; sequences stand for … in CUCUCU…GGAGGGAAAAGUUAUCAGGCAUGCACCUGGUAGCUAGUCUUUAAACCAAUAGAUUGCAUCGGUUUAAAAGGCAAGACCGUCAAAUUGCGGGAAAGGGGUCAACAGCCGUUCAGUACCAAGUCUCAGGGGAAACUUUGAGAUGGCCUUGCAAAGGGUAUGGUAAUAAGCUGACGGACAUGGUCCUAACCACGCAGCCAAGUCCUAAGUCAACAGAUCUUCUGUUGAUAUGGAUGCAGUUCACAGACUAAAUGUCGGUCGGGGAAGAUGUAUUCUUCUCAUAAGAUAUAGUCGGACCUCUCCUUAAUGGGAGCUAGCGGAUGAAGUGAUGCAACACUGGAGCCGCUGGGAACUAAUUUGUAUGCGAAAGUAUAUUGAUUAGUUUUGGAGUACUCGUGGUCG;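 further: selection with 25 µg/mL kanamycin versus none on LB agar overnight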
# conditions: 30 °C
readoutKind: self-splicing fitness (ln)
When you answer, write just the number.

// worked examples, self-splicing fitness (ln) included
Sample `UCCUAGCAAUAUUACGGGCC` ; self-splicing fitness (ln) observed: -2.79

// self-splicing fitness (ln) value for `ACCAAGCAAUAUUACGCCAG` : -2.75

self-splicing fitness (ln) reading for `GUAGAGCAAUAUUACGCCAC` : -1.7

Others:
Short answer for `GAUCAGCAAUAUUACGGCCC` : self-splicing fitness (ln) was -1.65

Lab book: self-splicing fitness (ln) of `AGACAGCAAUAUUACGCUAC` noted as -2.43

For this sequence ( `UCGUAGCAAUAUUACGAACA` ), measured self-splicing fitness (ln) is -2.55

So for `UGCUAGCAAUAUUACGGUUC` , the logged self-splicing fitness (ln) turned out to be -2.49

Consider `GUAAAGCAAUAUUACGCUGA` . Its measured self-splicing fitness (ln) is -1.4

self-splicing fitness (ln) in this record for `AACUAGCAAUAUUACGGGGU` : -3.93

response.value for `GGGUAGCAAUAUUACGCCUA` (field: self-splicing fitness (ln)) = 0.113

`AGGCAGCAAUAUUACGUCGG` has a reported self-splicing fitness (ln) of -0.675

sequence `UACGAGCAAUAUUACGCGUG` , self-splicing fitness (ln) observed: -4.43

Per the records, this sequence ( `GCUAAGCAAUAUUACGCGUC` ) has self-splicing fitness (ln) equal to -0.276

----------
# assayComment: self-splicing fitness, log relative to wild type (ln ratio); higher = more splicing; Tetrahymena group I intron in knt gene, E. coli kanamycin selection, DiMSum; sequences stand for … in CUCUCU…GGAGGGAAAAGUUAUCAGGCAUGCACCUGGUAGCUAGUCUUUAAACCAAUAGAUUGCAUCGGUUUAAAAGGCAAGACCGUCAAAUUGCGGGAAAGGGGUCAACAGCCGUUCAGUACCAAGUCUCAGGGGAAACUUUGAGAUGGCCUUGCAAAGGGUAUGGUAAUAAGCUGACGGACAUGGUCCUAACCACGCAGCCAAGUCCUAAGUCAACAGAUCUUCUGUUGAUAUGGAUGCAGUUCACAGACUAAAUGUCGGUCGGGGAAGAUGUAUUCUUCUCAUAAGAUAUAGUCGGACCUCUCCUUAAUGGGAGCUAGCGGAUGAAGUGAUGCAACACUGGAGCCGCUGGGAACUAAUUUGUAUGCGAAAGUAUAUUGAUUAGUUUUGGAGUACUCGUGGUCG
# conditions: 37 °C
readoutKind: self-splicing fitness (ln)
Could you keep your reply to the number by itself?

Past entries and their recorded results:
Please fill in: self-splicing fitness (ln) reported for `UCCCAGCAAUAUUACGGCAG` = -2.58

The value of self-splicing fitness (ln) measured for the sequence `UGACAGCAAUAUUACGUCGC` turned out to be -1.64

Reported self-splicing fitness (ln) for `ACUUAGCAAUAUUACGCACC` was 0.826

Here is another sequence to look at.
Reported self-splicing fitness (ln) ( `GUGCAGCAAUAUUACGACCU` ) = -0.504
